Experiment: Toxicokinetics of levcromakalim in plasma, BID T.O. bilateral formulation 3d for 28 days in rabbits (Example 12, Table 11)
Format: in vivo, rabbit
Conditions: male, DB, rabbit, plasma, topical or ocular, 0.012 mg, males, 0.012 mg/eye/dose BID OU T.O. formulation 3d, Day 1, rabbit plasma
parameter: AUC(0-t) (ng·h/mL)
Give the value, in units of ng·h/mL, as a plain number.

Query string: Please report AUC(0-t) for the following compound: CC1(C)Oc2ccc(C#N)cc2[C@@H](N2CCCC2=O)[C@@H]1O [levcromakalim]
Result string: 0.94

----------
Experiment: Toxicokinetics of levcromakalim in plasma, BID T.O. bilateral formulation 3d for 28 days in rabbits (Example 12, Table 11)
Type: in vivo, rabbit
Conditions: female, DB, rabbit, plasma, topical or ocular, 0.03 mg, females, 0.03 mg/eye/dose BID OU T.O. formulation 3d, Day 28, rabbit plasma
parameter: Cmax (ng/mL)
Give the value, in units of ng/mL, as a plain number.

Query string: Please report Cmax for the following compound: CC1(C)Oc2ccc(C#N)cc2[C@@H](N2CCCC2=O)[C@@H]1O
Result string: 1.76

----------
Experiment: Toxicokinetics of levcromakalim in plasma, BID T.O. bilateral formulation 3d for 28 days in rabbits (Example 12, Table 11)
Type: in vivo, rabbit
Conditions: male, DB, rabbit, plasma, topical or ocular, 0.012 mg, males, 0.012 mg/eye/dose BID OU T.O. formulation 3d, Day 28, rabbit plasma
parameter: AUC(0-t) (ng·h/mL)
Give the value, in units of ng·h/mL, as a plain number.

Query string: Please report AUC(0-t) for the following compound: CC1(C)Oc2ccc(C#N)cc2[C@@H](N2CCCC2=O)[C@@H]1O
Result string: 0.14

----------
Assay: Toxicokinetics of levcromakalim in plasma, BID T.O. bilateral formulation 3d for 28 days in rabbits (Example 12, Table 11)
Type: in vivo, rabbit
Details: female, DB, rabbit, plasma, topical or ocular, 0.06 mg, females, 0.06 mg/eye/dose BID OU T.O. formulation 3d, Day 1, rabbit plasma
parameter: Cmax (ng/mL)
Give the value, in units of ng/mL, as a plain number.

Query string: Please report Cmax for the following compound: CC1(C)Oc2ccc(C#N)cc2[C@@H](N2CCCC2=O)[C@@H]1O [levcromakalim]
Result string: 2.85

----------
Test: Toxicokinetics of levcromakalim in plasma, BID T.O. bilateral formulation 3d for 28 days in rabbits (Example 12, Table 11)
Assay type: in vivo, rabbit
Conditions: male, DB, rabbit, plasma, topical or ocular, 0.06 mg, males, 0.06 mg/eye/dose BID OU T.O. formulation 3d, Day 28, rabbit plasma
parameter: half-life (h)
Give the value, in units of h, as a plain number.

Query string: Please report half-life for the following molecule: CC1(C)Oc2ccc(C#N)cc2[C@@H](N2CCCC2=O)[C@@H]1O [levcromakalim]
Result string: 2.29

----------
Assay: Toxicokinetics of levcromakalim in plasma, BID T.O. bilateral formulation 3d for 28 days in rabbits (Example 12, Table 11)
Assay type: in vivo, rabbit
Conditions: female, DB, rabbit, plasma, topical or ocular, 0.03 mg, females, 0.03 mg/eye/dose BID OU T.O. formulation 3d, Day 1, rabbit plasma
parameter: AUC(0-t) (ng·h/mL)
Give the value, in units of ng·h/mL, as a plain number.

Query string: Please report AUC(0-t) for the following compound: CC1(C)Oc2ccc(C#N)cc2[C@@H](N2CCCC2=O)[C@@H]1O
Result string: 3.99

----------
Assay: Toxicokinetics of levcromakalim in plasma, BID T.O. bilateral formulation 3d for 28 days in rabbits (Example 12, Table 11)
Format: in vivo, rabbit
Details: male, DB, rabbit, plasma, topical or ocular, 0.03 mg, males, 0.03 mg/eye/dose BID OU T.O. formulation 3d, Day 28, rabbit plasma
parameter: Cmax (ng/mL)
Give the value, in units of ng/mL, as a plain number.

Query string: Please report Cmax for the following compound: CC1(C)Oc2ccc(C#N)cc2[C@@H](N2CCCC2=O)[C@@H]1O
Result string: 1.68

----------
Assay: Toxicokinetics of levcromakalim in plasma, BID T.O. bilateral formulation 3d for 28 days in rabbits (Example 12, Table 11)
Type: in vivo, rabbit
Settings: female, DB, rabbit, plasma, topical or ocular, 0.012 mg, females, 0.012 mg/eye/dose BID OU T.O. formulation 3d, Day 1, rabbit plasma
parameter: AUC(0-t) (ng·h/mL)
Give the value, in units of ng·h/mL, as a plain number.

Query string: Please report AUC(0-t) for the following compound: CC1(C)Oc2ccc(C#N)cc2[C@@H](N2CCCC2=O)[C@@H]1O [levcromakalim]
Result string: 0.57

----------
Test: Toxicokinetics of levcromakalim in plasma, BID T.O. bilateral formulation 3d for 28 days in rabbits (Example 12, Table 11)
Format: in vivo, rabbit
Conditions: female, DB, rabbit, plasma, topical or ocular, 0.012 mg, females, 0.012 mg/eye/dose BID OU T.O. formulation 3d, Day 1, rabbit plasma
parameter: half-life

Query string: Please report half-life for the following compound: CC1(C)Oc2ccc(C#N)cc2[C@@H](N2CCCC2=O)[C@@H]1O [levcromakalim]
Result string: 110 min

----------
Experiment: Toxicokinetics of levcromakalim in plasma, BID T.O. bilateral formulation 3d for 28 days in rabbits (Example 12, Table 11)
Type: in vivo, rabbit
Settings: female, DB, rabbit, plasma, topical or ocular, 0.03 mg, females, 0.03 mg/eye/dose BID OU T.O. formulation 3d, Day 1, rabbit plasma
parameter: Tmax (min)
Give the value, in units of min, as a plain number.

Query string: Please report Tmax for the following compound: CC1(C)Oc2ccc(C#N)cc2[C@@H](N2CCCC2=O)[C@@H]1O [levcromakalim]
Result string: 40.2

----------
Test: Toxicokinetics of levcromakalim in plasma, BID T.O. bilateral formulation 3d for 28 days in rabbits (Example 12, Table 11)
Format: in vivo, rabbit
Conditions: male, DB, rabbit, plasma, topical or ocular, 0.03 mg, males, 0.03 mg/eye/dose BID OU T.O. formulation 3d, Day 1, rabbit plasma
parameter: Tmax (min)
Give the value, in units of min, as a plain number.

Query string: Please report Tmax for the following compound: CC1(C)Oc2ccc(C#N)cc2[C@@H](N2CCCC2=O)[C@@H]1O
Result string: 40.2

----------
Assay: Toxicokinetics of levcromakalim in plasma, BID T.O. bilateral formulation 3d for 28 days in rabbits (Example 12, Table 11)
Assay type: in vivo, rabbit
Conditions: female, DB, rabbit, plasma, topical or ocular, 0.06 mg, females, 0.06 mg/eye/dose BID OU T.O. formulation 3d, Day 28, rabbit plasma
parameter: half-life
Enter the number, and then the unit.

Query string: Please report half-life for the following compound: CC1(C)Oc2ccc(C#N)cc2[C@@H](N2CCCC2=O)[C@@H]1O [levcromakalim]
Result string: 1.97 h

----------
Test: Toxicokinetics of levcromakalim in plasma, BID T.O. bilateral formulation 3d for 28 days in rabbits (Example 12, Table 11)
Format: in vivo, rabbit
Details: male, DB, rabbit, plasma, topical or ocular, 0.06 mg, males, 0.06 mg/eye/dose BID OU T.O. formulation 3d, Day 28, rabbit plasma
parameter: Tmax
Enter the number, and then the unit.

Query string: Please report Tmax for the following compound: CC1(C)Oc2ccc(C#N)cc2[C@@H](N2CCCC2=O)[C@@H]1O
Result string: 36 min

----------
Test: Toxicokinetics of levcromakalim in plasma, BID T.O. bilateral formulation 3d for 28 days in rabbits (Example 12, Table 11)
Assay type: in vivo, rabbit
Conditions: female, DB, rabbit, plasma, topical or ocular, 0.012 mg, females, 0.012 mg/eye/dose BID OU T.O. formulation 3d, Day 28, rabbit plasma
parameter: AUC(0-t) (ng·h/mL)
Give the value, in units of ng·h/mL, as a plain number.

Query string: Please report AUC(0-t) for the following compound: CC1(C)Oc2ccc(C#N)cc2[C@@H](N2CCCC2=O)[C@@H]1O
Result string: 0.051

----------
Assay: Toxicokinetics of levcromakalim in plasma, BID T.O. bilateral formulation 3d for 28 days in rabbits (Example 12, Table 11)
Assay type: in vivo, rabbit
Details: female, DB, rabbit, plasma, topical or ocular, 0.06 mg, females, 0.06 mg/eye/dose BID OU T.O. formulation 3d, Day 1, rabbit plasma
Procedure: Plasma concentrations of levcromakalim were evaluated in DB rabbits after twice a day (BID) oculus uterque (OU, both eyes) topical ophthalmic (T.O.) administration of formulation 3d for 28 days at dose levels of 0, 0.012, 0.03, and 0.06 mg/eye/dose. […]
parameter: AUC(0-t) (ng·h/mL)
Give the value, in units of ng·h/mL, as a plain number.

Query string: Please report AUC(0-t) for the following compound: CC1(C)Oc2ccc(C#N)cc2[C@@H](N2CCCC2=O)[C@@H]1O
Result string: 8.89

----------
Test: Toxicokinetics of levcromakalim in plasma, BID T.O. bilateral formulation 3d for 28 days in rabbits (Example 12, Table 11)
Assay type: in vivo, rabbit
Details: male, DB, rabbit, plasma, topical or ocular, 0.03 mg, males, 0.03 mg/eye/dose BID OU T.O. formulation 3d, Day 28, rabbit plasma
Method: Plasma concentrations of levcromakalim were evaluated in DB rabbits after twice a day (BID) oculus uterque (OU, both eyes) topical ophthalmic (T.O.) administration of formulation 3d for 28 days at dose levels of 0, 0.012, 0.03, and 0.06 mg/eye/dose. […]
parameter: Tmax
Enter the number, and then the unit.

Query string: Please report Tmax for the following compound: CC1(C)Oc2ccc(C#N)cc2[C@@H](N2CCCC2=O)[C@@H]1O [levcromakalim]
Result string: 30 min
